Recorded Activity for the following compounds
species: Mus musculus; test: Analgesic activity in mice by mouse phenylquinone writhing assay relative to aspirin.; format: functional
endpointLabel: Activity

compound="CC(C(=O)O)c1cc(O)c2c(c1)CCc1ccccc1C2=O (stereo unspecified)" endpointlabel=Activity sign== quantitativereadout=4
compound=O=C(O)Cc1ccc2c(c1)CCc1ccccc1C2=O endpointlabel=Activity sign== quantitativereadout=1.5
compound=O=C(O)c1ccccc1Nc1cccc(C(F)(F)F)c1 endpointlabel=Activity sign=< quantitativereadout=0.4
compound=O=C(O)Cc1ccc2c(c1)SCc1ccccc1C2=O endpointlabel=Activity sign== quantitativereadout=14

====

organism: Mus musculus; experiment: Analgesic activity in mice by mouse phenylquinone writhing assay relative to aspirin.; type: functional
endpointLabel: Activity

molecule=O=C1Cc2ccc3c(c2O1)CCc1ccccc1C3=O result=~1
molecule=O=C(O)Cc1ccc2c(c1)CCc1ccc(O)cc1C2=O result=~0.2
molecule="CC(C(=O)O)c1cc(O)c2c(=O)c3ccccc3ccc2c1 (stereo not given)" result=~6
molecule=O=C(O)Cc1ccc2c(c1)CCc1cccc(O)c1C2=O result=>=0.4
molecule=O=C(O)Cc1ccc2c(c1)CCc1cc(O)ccc1C2=O result=~0.6
